tested.system: purified recombinant linear UB trimers
assay.metric: in vitro deubiquitylation activity

{"protein": "His-tagged OTU9 (protein) MGYEPDPDALRWGLHDLEVCTLTNAGSCSSVTRYESGGGGTQGYVREGYNQPVTGYVDNDAVIAQFYQDELSRVARAEASGINSLSPTSVVAQDWPHPHQGQENQGEAIDITQESDILHNHNGNMEDKNVARIRFEGGQSSPSRDDDSVCSVEIEEESWSEVGKRLNQMIPIAHVPKINGELPSEDEQISDHERLFQRLQLYGLVENKIEGDGNCQFRSLSDQLYRSPEHHNFVREQVVNQLAYNREIYEGYVPMAYNDYLKAMKRNGEWGDHVTLQAAADLFGVRMFVITSFKDTCYIEILPHFQKSNRLICLSFWAEVHYNSIYPEGELPIPEGKKKKKYWVF", "assay.metric": "in vitro deubiquitylation activity", "result": "-"}
{"protein": "His-tagged OTU7a (protein) MAKTKQQKSKPKKQPHQKQGKDCDLSQFRAQLDALGLKIIQVTADGNCFFRAIADQLEGNEDEHNKYRNMIVLYIVKNREMFEPFIEDDVPFEDYCKTMDDDGTWAGNMELQAASLVTRSNICIHRNMSPRWYIRNFEDTRTRMIHLSYHDGEHYNSVRSKEDACGGPARPVVIEADAKVSAASKQAKATESKSKNKADKCHVNAGAIKVVMSGSCCDNTEKAEQVLLQVNGDVDAAIEFLIADQGMESLTENDTETASASDTINPKHASDSPMENTEQAREELIEEESASGNNSETVQAKCTTQTDDKKIPRNKTCPCGSKKKYKSCCGTATGRSSVKLLVSQTMESKKGRKNLRRGTSNEVEANAPDVGALCI", "assay.metric": "in vitro deubiquitylation activity", "result": "-"}
{"protein": "His-tagged OTU3 (protein) MELKSSSNNNILEQLRNGFARFELVSSPTASVSDSISSTSLPASFISTTKGNSYVFFARINSSMNRSPAAKKVEKYAVDRVKGDGRCLFRALVKGMAFNKGITLNPQRERDDADELRMAVKEVICNDPKEREKYKEALVAITVDESLKRFCQRIGRHDFWGGESELLVLSKLCKQPIIVYIPEHEHGRGGGYGPGFIPIQEYGSEFRGGWGKGKTNKNVVRLLYSGRNHYDLLR", "assay.metric": "in vitro deubiquitylation activity", "result": "+"}
{"protein": "His-tagged OTU2 (protein) MEGIIVRRVIPSDNSCLFNAIGYVMDKDKNKAPELRQVIAAAVASNKEKYNEAFLGKLNEEYCAWILNPDKWGGAIELSILADYYGREIAAYDIQTSRCDLYGQTRNYDERVMLIYDGLHYDALALSPFEGAEEDFDMTIYPVGKDRSIGSIEGLALNLVKDQQRKRSYTDTANFTLRCGVCQIGVIGQKEAVEHAQATGHVNFQEYK", "assay.metric": "in vitro deubiquitylation activity", "result": "-"}
